# method: activity coefficient (dimensionless); of the first substance listed, at infinite dilution; xn = mol fraction of the nth substance listed
# conditionParameters: 338.15 K; 101 kPa; Liquid; Chromatography; x1 = 0
Task for the reader: assign each of the following compounds its reported activity coefficient.
Give bare numbers.

Use the examples below as a reference point.
>  <compound>
CCCCCC [hexane] + CCCCC[N+]1(C)CCCCC1.O=S(=O)([N-]S(=O)(=O)C(F)(F)F)C(F)(F)F

>  <endpointLabel>
activity coefficient

>  <observedValue>
8.45

$$$$
>  <compound>
O [water] + CCCCC[N+]1(C)CCCCC1.O=S(=O)([N-]S(=O)(=O)C(F)(F)F)C(F)(F)F

>  <endpointLabel>
activity coefficient

>  <observedValue>
3.18

$$$$

Report activity coefficient for every entry below.
1. C=CCCCC [hex-1-ene] + CCCCCC[N+]1(C)CCCCC1.O=S(=O)([N-]S(=O)(=O)C(F)(F)F)C(F)(F)F
2. C1=CCCCC1 [cyclohexene] + CCCCC[N+]1(C)CCCCC1.O=S(=O)([N-]S(=O)(=O)C(F)(F)F)C(F)(F)F
3. CCCCCO [pentan-1-ol] + CCCCCC[N+]1(C)CCCCC1.O=S(=O)([N-]S(=O)(=O)C(F)(F)F)C(F)(F)F
4. CCCO [propan-1-ol] + CCCCC[N+]1(C)CCCCC1.O=S(=O)([N-]S(=O)(=O)C(F)(F)F)C(F)(F)F
5. CCc1ccccc1 [ethylbenzene] + CCCCC[N+]1(C)CCCCC1.O=S(=O)([N-]S(=O)(=O)C(F)(F)F)C(F)(F)F

4.28
3.39
1.92
1.55
1.37
